- Test system: SMN2 mRNA
- Assay Protocol: Splicing RT-qPCR gene panel, SMN2 canonical junction (CJ) mRNA
- Assay type: cell-based
- Assay Context: Homo sapiens; Table 8; larger gene panel, decrease in CJ mRNA levels
pIC50: −log10 of the molar value.
Property Measured: pIC50

Cn1cc2cc(-n3cc4sc(C5CCNCC5)cc4n3)cc(F)c2n1 [Compound 105]: 6.00 to 7.00
Cc1cn2nc(-c3cc4cn(C5CCNCC5)nc4s3)cc2c(C)n1 [Compound 222]: > 7.00
COc1c(-c2cc3cn(C4CCNCC4)nc3s2)nn2cc(C)nc(C)c12 [Compound 219]: 5.00 to 6.00
Cc1cn2cc(-n3cc4cc(C5CCNCC5)sc4n3)ncc2n1 [Compound 158]: 6.00 to 7.00
Cc1cn2nc(-n3cc4sc(C5CCNCC5)cc4n3)cc2c(C)n1 [Compound 171]: 6.00 to 7.00

GET /values?readout=pIC50&system=SMN2 mRNA&item= Cc1cc(N2Cc3sc(C4CCNCC4)cc3C2=O)cc2cn(C)nc12 [Compound 1122]
6.00 to 7.00

* * *

- System: SMN2 mRNA
- Assay Protocol: Splicing RT-qPCR gene panel, SMN2 canonical junction (CJ) mRNA
- Format: cell-based
- Assay Context: Homo sapiens; Table 8; larger gene panel, decrease in CJ mRNA levels
pIC50: −log10 of the molar value.
Consider the following compounds and their measured pIC50 readings.

Example entries and their recorded answers appear below.
Cn1cc2cc(-c3nc4sc(N5CCNC(C)(C)C5)cc4s3)cc(F)c2n1: > 7.00
Cc1cn2nc(-n3cc4sc(N5CC6(CN(C)C6)C5)cc4n3)cc(C)c2n1: 6.00 to 7.00
Cn1cc2cc(N3Cc4sc(C5CCNCC5)cc4C3=O)ccc2n1: 6.00 to 7.00

API: the following record is the query input.
GET /values?readout=pIC50&system=SMN2 mRNA&item= Cc1cn2nc(-c3cc4cn([C@H]5CCNC[C@@H]5F)nc4s3)cc(C)c2n1 (mixture of isomers)
6.00 to 7.00

* * *

- System: SMN2 mRNA
- Assay Protocol: Splicing RT-qPCR gene panel, SMN2 canonical junction (CJ) mRNA
- Format: cell-based
- Assay Context: Homo sapiens; Table 8; larger gene panel, decrease in CJ mRNA levels
pIC50: −log10 of the molar value.
In this section, each of the compounds is paired with its reported pIC50.

C[C@@H]1C[C@@H](c2cc3sc(-c4cc(F)c5nn(C)cc5c4)nc3s2)CCN1 (stereo in doubt) [Compound 263]: > 7.00
Cc1cn2cc(-c3nc4sc(C5CCNCC5)cc4s3)cc(Cl)c2n1: > 7.00
Cc1cn2cc(-n3cc4sc(C5CCNCC5)cc4n3)ncc2n1: 5.00 to 6.00

GET /values?readout=pIC50&item= Cc1cn2nc(-c3nc4sc(C5CCNCC5)cc4s3)cc2c(C)n1
6.00 to 7.00

* * *

- System: MYB mRNA
- Assay Protocol: Splicing RT-qPCR assay, MYB canonical (CJ) and alternative (AJ) junction mRNA
- Format: cell-based
- Assay Context: Homo sapiens; Table 7; IC50 = 50% response in CJ mRNA decrease; RT-qPCR, A673 or K562 cells, 24 hours treatment; read-out: MYB CJ
- Experimental: Compounds described herein were used to modulate RNA transcript abundance in cells. The expression of a target mRNA was measured by detecting the formation of an exon-exon junction in the canonical transcript (CJ). A compound mediated exon-inclusion event was detected by observing an increase in formation of a new junction with an alternative exon (AJ). Real-time qPCR assays were used to detect these splicing switches and interrogate the potency of various compounds towards different target genes. […]
Property Measured: IC50

As a guide, the following entries are already answered.
Cn1cc2cc(-c3nc4sc(N5CCNC(C)(C)C5)cc4s3)cc(F)c2n1: 0.1 to 1 µM
Cc1cn2cc(-c3nc4sc(C5CCNCC5)cc4s3)nc2c(C)n1: 1 to 10 µM
Cc1cn2nc(-c3nc4sc(C5CNC5)cc4s3)cc(C)c2n1: 1 to 10 µM
Cn1cc2cc(-c3nc4sc(C5CCNCC5)cn4n3)cc(F)c2n1: > 10 µM
Cc1cn2cc(-n3cc4cc(C5CCNCC5)sc4n3)cc(C)c2n1: 1 to 10 µM

GET /values?readout=IC50&system=MYB mRNA&item= COc1c(-c2nc3cn(C4CCNCC4)nc3s2)cc2cn(C)nc2c1C
1 to 10 µM

Same thing, different compound: Cn1cc2cc(-c3nc4sc(C5(O)CCNCC5)cc4s3)cc(F)c2n1
0.1 to 1 µM

Cc1cn2nc(-n3cc4cc(C5CCNCC5)sc4n3)cc2c(C)n1 , same question.
1 to 10 µM

And Cn1cc2cc(-c3nc4sc([C@H]5CCNC[C@H]5F)cc4s3)cc(F)c2n1 ?
1 to 10 µM

* * *

- System: SMN2 mRNA
- Assay Protocol: Splicing RT-qPCR gene panel, SMN2 canonical junction (CJ) mRNA
- Assay type: cell-based
- Assay Context: Homo sapiens; Table 8; larger gene panel, decrease in CJ mRNA levels
pIC50: −log10 of the molar value. Structures can show the parent of a compound that is named as a salt.
# key: entry, value: pIC50

Query (compound): Cc1cn2cc(-c3nc4sc(C5CCNCC5)cc4s3)cc(C)c2n1 [Compound 140, hydrochloride] ; field requested: pIC50
> 7.00

Param item: Cn1cc2cc(-c3nc4sc(C5(O)CCNCC5)cc4s3)cc(F)c2n1 [Compound 236]
6.00 to 7.00

Next entry: Cn1cc2cc(-c3nc4sc(N5CCNCC5)cc4s3)cc(F)c2n1 [Compound 134]
> 7.00

* * *

- Test system: K562 (human chronic myelogenous leukemia) cells
- Assay Protocol: Cell viability, Cell Titer Glo 2.0 assay, K562 cells
- Format: cell-based
- Assay Context: 72 hours
pIC50: −log10 of the molar value.
Property Measured: pIC50

Would you kindly share the measured pIC50 for Cc1cc(-c2cc3cn(C4CCNCC4)nc3s2)cc2cn(C)nc12 [Compound 225] ?
6.00 to 7.00

* * *

Consider the following compounds and their measured pEC50 readings.
- Tested on: HTT mRNA
- Assay Protocol: Splicing RT-qPCR assay, HTT canonical (CJ) and alternative (AJ) junction mRNA
- Type: cell-based
- Assay Context: Homo sapiens; Table 7; AC50 = 50% response in AJ mRNA increase; RT-qPCR, A673 or K562 cells, 24 hours treatment
- Description: Compounds described herein were used to modulate RNA transcript abundance in cells. The expression of a target mRNA was measured by detecting the formation of an exon-exon junction in the canonical transcript (CJ). A compound mediated exon-inclusion event was detected by observing an increase in formation of a new junction with an alternative exon (AJ). Real-time qPCR assays were used to detect these splicing switches and interrogate the potency of various compounds towards different target genes. […]
pEC50: −log10 of the molar value.

A selection of reference data follows.
Cn1cc2cc(-c3cc4cn([C@@H]5CCNC[C@@H]5F)nc4s3)cc(F)c2n1: 5.00 to 6.00
Cc1cn2nc(-c3cc4cn(C5CCNCC5)nc4s3)cc(C)c2n1: 6.00 to 7.00
Cn1cc2cc(-c3cc4cn(C5CCNCC5)nc4s3)ncc2n1: 6.00 to 7.00
Cn1cc2cc(-n3cc4sc(C5CCNCC5)cc4n3)cc(F)c2n1: 6.00 to 7.00
Cn1cc2cc(-c3nc4sc(N5CCNCC5)c(Cl)c4s3)cc(F)c2n1: 6.00 to 7.00

Field: pEC50 (HTT mRNA). Entry: Cc1cn2nc(-n3cc4sc(C5CCNCC5)cc4n3)cc(C)c2n1
6.00 to 7.00

Okay, and C[C@@H]1C[C@@H](c2cc3sc(-c4cc(F)c5nn(C)cc5c4)nc3s2)CCN1 (stereo in doubt) [Compound 263] ?
> 7.00

Also Cc1cn2nc(-n3cc4sc(N5CC6(CN(C)C6)C5)cc4n3)cc(C)c2n1 , if possible.
5.00 to 6.00

Also CN1CCCC2(CCN2c2cc3sc(-c4cc(F)c5nn(C)cc5c4)nc3s2)C1 (stereo not drawn) ?
< 5.00

And the next one, Cn1cc2cc(-c3nc4cn(C5CCNCC5)nc4s3)c(O)cc2n1 ?
6.00 to 7.00

* * *

- Test system: K562 (human chronic myelogenous leukemia) cells
- Assay Protocol: Cell viability, Cell Titer Glo 2.0 assay, K562 cells
- Assay type: cell-based
- Assay Context: 72 hours
Measured IC50 by item

The examples below pair each entry with its known result.
Cc1cn2cc(-c3nc4cn(C5CCNCC5)nc4s3)nc(C)c2n1 [Compound 1105]: > 10 µM
Cc1cn2cc(-n3cc4sc(C5CCNCC5)cc4n3)nc2c(C)n1 [Compound 181]: 1 to 10 µM
Cn1cc2cc(-c3nc4cn(C5CCNCC5)nc4s3)c(O)c(F)c2n1 [Compound 1107]: 1 to 10 µM
Cc1cn2nc(-n3cc4cc(C5CCNCC5)sc4n3)nc2c(C)n1 [Compound 163]: 1 to 10 µM
Cn1cc2cc(-c3nc4cn(C5CCNCC5)nc4s3)cc(F)c2n1 [Compound 1100]: 1 to 10 µM

What is its IC50 for K562 (human chronic myelogenous leukemia) cells? Entry: Cc1cn2cc(-n3cc4sc(C5CCNCC5)cc4n3)cc(F)c2n1 [Compound 166]
1 to 10 µM

Entry Cc1cc(-c2nc3cn(C4CCNCC4)nc3s2)cc2cn(C)nc12 [Compound 1101] please
0.1 to 1 µM

One more compound: Cc1nc2cc(O)c(-c3nc4cn(C5CCNCC5)nc4s3)cc2o1 [Compound 1104]
1 to 10 µM
